These entries and their values trace back to patent US20230021669A1.

Kindly supply the reported Aldehyde consumption (100%) values for the records listed here.
Test: Determination of aldehyde capture rate (nonenal as model aldehyde, HPLC quantification)
Settings: 465 minutes; nonenal 0.025 mM, compound 0.05 mM, room temperature
Give bare numbers, in %.

>  <query smiles>
CC(C)(O)c1nc2cc3oc(N4CCOCC4)nc3cc2cc1N

>  <value observed>
8.34

$$$$

Please state, for each entry, its recorded Aldehyde consumption (100%).
1. CC(C)(O)c1cc2cc3c(cc2cc1N)OCCOCCOCCO3
2. CC(C)(O)c1nc2cc3nc(N4CCOCC4)oc3cc2cc1N
3. Cc1nc2cc3nc(C(C)(C)O)c(N)cc3cc2o1
4. CC(C)(O)c1nc2cc3c(cc2cc1N)OCO3

Response:
[19.82, 43.67, 12.11, 18.43]
